Measured residual activity values are reported for all entries that follow.
target entity: Calcium/calmodulin-dependent protein kinase type II subunit delta (Homo sapiens) (UniProt Q13557)
Sequence (Q13557 whole entry): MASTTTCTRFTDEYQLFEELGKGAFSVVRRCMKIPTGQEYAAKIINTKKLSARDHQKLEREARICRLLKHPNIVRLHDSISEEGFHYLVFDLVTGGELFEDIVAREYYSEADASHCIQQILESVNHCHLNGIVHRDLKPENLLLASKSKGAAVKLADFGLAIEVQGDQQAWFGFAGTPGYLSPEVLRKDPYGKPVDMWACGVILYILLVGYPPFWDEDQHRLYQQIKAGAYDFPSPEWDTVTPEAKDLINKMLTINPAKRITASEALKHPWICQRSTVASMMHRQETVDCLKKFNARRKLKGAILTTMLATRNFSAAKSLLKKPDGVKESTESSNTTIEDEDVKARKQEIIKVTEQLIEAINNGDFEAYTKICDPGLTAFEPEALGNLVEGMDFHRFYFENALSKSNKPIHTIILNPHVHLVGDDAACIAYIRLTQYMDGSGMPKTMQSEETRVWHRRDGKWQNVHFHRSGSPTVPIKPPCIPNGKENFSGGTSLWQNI
condition summary: at 10 µM
readout: residual activity (%)

>>> quantitative_result("O=C(Nc1cccc(Nc2nccc(Nc3cccc(C(F)(F)F)c3)n2)c1)C1CC1")
19
>>> quantitative_result("Cc1cc(Nc2nc(-c3ccccc3)nc3ccccc23)n[nH]1")
20
>>> quantitative_result("CC(=O)O/N=C1\\C(=C2\\C(=O)Nc3cc(Br)ccc32)Nc2ccccc21")
4
>>> quantitative_result("O=C1NC(=O)c2cc(Nc3ccc(F)cc3)c(Nc3ccc(F)cc3)cc21")
88
>>> quantitative_result("Cc1ccc(S(=O)(=O)/C=C/C#N)cc1")
107
>>> quantitative_result("CO[C@H]1[C@@H](OC)C[C@H](C)[C@@H](OC)C2=CC(=O)C=C(NC(=O)/C(C)=C/C=C/[C@H](OC)[C@@H](OC(N)=O)/C(C)=C/[C@@H]1C)C2=O")
110
>>> quantitative_result("Cc1nc(-c2ccccc2)c(-c2ccncc2)o1")
81

====

target entity: Tyrosine-protein kinase HCK (Homo sapiens)
condition summary: at 1 µM
readout: residual activity (%)

>>> quantitative_result("CC(=O)c1ccc(N2CCOCC2)cc1O")
84
>>> quantitative_result("CN(C)CCCn1cc(C2=C(c3c[nH]c4ccccc34)C(=O)NC2=O)c2ccccc21")
74
>>> quantitative_result("c1ccc2c(-c3ccncc3)c[nH]c2c1")
68
>>> quantitative_result("O=C1c2ccccc2-[n+]2ccc3c([nH]c4ccccc43)c21")
80
>>> quantitative_result("CC#CC(=O)Nc1cc2c(Nc3ccc(F)c(Cl)c3)ncnc2cn1")
85
>>> quantitative_result("CCN(CC)C(=O)c1ccc(Nc2nc(OCC3CCCCC3)c3nc[nH]c3n2)cc1")
31
>>> quantitative_result("Oc1c2ccccc2c2c3c(cccc13)N=N2")
57
>>> quantitative_result("Cc1cncc2cccc(S(=O)(=O)N3CCCN(C(=O)CN)C[C@H]3C)c12")
69
>>> quantitative_result("Nc1cccc(-c2cc3c(Oc4cccc(O)c4)ncnc3[nH]2)c1")
4
>>> quantitative_result("COc1ccc(OC)c2c(=S)c3ccccc3[nH]c12")
85
>>> quantitative_result("Nc1ccc2ncnc(NCCc3ccc(Oc4ccccc4)cc3)c2c1")
67

====

target entity: Homeodomain-interacting protein kinase 1 (Homo sapiens)
condition summary: at 10 µM
Description: Millipore: Percentage of residual kinase activity of HIPK1 at 10uM relative to control. Control inhibitor: Phosphoric acid* at 0.3uM. Buffer: 8 mM MOPS pH 7.0, 0.2 mM EDTA
Measured residual activity values are reported for all entries that follow.
readout: residual activity (%)

>>> quantitative_result("COc1cccc(-c2cc(=O)c3ccccc3o2)c1N")
92
>>> quantitative_result("Cn1nc2c3c(cccc31)C(=O)c1ccccc1-2")
96
>>> quantitative_result("CO[C@@H]1[C@H](N(C)C(=O)c2ccccc2)C[C@H]2O[C@]1(C)n1c3ccccc3c3c4c(c5c6ccccc6n2c5c31)C(=O)NC4")
83
>>> quantitative_result("CNc1cc2c(Nc3cccc(Br)c3)ncnc2cn1")
101
>>> quantitative_result("Oc1n[nH]c2nnc(-c3c(-c4ccccc4)nn4ccccc34)cc12")
95
>>> quantitative_result("O=C1NC(=O)/C(=C\\c2ccc3nccnc3c2)S1")
28
>>> quantitative_result("CC(C)n1cnc2c(NCc3ccccc3)nc(NCCCO)nc21")
92
>>> quantitative_result("O=C1NC(=O)c2c1c1c3ccccc3[nH]c1c1[nH]c3cc(Br)ccc3c21")
96
>>> quantitative_result("CC(=O)c1ccc(N2CCOCC2)cc1O")
104
>>> quantitative_result("CO[C@H]1[C@@H](OC)C[C@H](C)[C@@H](OC)C2=CC(=O)C=C(NC(=O)/C(C)=C/C=C/[C@H](OC)[C@@H](OC(N)=O)/C(C)=C/[C@@H]1C)C2=O")
104
>>> quantitative_result("Cc1cc2ncc(-c3ccccc3)nc2cc1C")
102
>>> quantitative_result("COc1cc2ncnc(Nc3ccc(Oc4ccccc4)cc3)c2cc1OC")
106
>>> quantitative_result("COc1ccc(OC)c2c(=S)c3ccccc3[nH]c12")
67
